# experimental-target: alpha2B adrenergic receptors (Homo sapiens, UniProt P18089)
# Construct: expressed in transfected cells; host or cells: NIH-3T3 cells
# Sequence (P18089 whole entry): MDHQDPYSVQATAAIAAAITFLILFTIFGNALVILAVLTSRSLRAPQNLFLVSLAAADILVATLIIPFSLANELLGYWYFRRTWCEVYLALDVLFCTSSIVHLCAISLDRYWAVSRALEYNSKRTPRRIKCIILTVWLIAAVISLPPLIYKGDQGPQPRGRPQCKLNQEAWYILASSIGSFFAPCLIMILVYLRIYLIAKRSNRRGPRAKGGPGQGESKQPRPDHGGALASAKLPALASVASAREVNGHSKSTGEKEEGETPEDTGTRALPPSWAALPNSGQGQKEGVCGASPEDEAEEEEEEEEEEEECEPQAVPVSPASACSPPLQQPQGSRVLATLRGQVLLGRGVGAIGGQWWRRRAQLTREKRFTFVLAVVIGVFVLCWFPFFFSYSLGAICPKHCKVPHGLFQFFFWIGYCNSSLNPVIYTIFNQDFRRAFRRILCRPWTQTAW
# assay-text: RSAT assay (Receptor Selection and Amplification Technology), alpha2B
# Type: cell-based
# run-conditions: NIH-3T3 cells, ratio of maximal effect to that of standard full agonist brimonidine, NA = not active below 10 micromolar
# key: entry, value: Intrinsic Activity Alpha 2B
parameter: Intrinsic Activity Alpha 2B

CC(c1c[nH]c(=S)[nH]1)c1cccc2cccnc12 (stereo not shown) ... 1.03
S=c1[nH]cc(Cc2ccc3ccccc3c2)[nH]1 ... 0.94
CC(c1c[nH]c(=S)[nH]1)c1cccc2nsnc12 (stereo not shown) ... 0.98
CC(c1c[nH]c(=S)[nH]1)c1cccc2ccccc12 (stereo not shown) ... 1.21

====

# experimental-target: alpha2A adrenergic receptors (Homo sapiens, UniProt P08913)
# Construct: expressed in transfected cells; host or cells: NIH-3T3 cells
# Sequence (P08913 whole entry): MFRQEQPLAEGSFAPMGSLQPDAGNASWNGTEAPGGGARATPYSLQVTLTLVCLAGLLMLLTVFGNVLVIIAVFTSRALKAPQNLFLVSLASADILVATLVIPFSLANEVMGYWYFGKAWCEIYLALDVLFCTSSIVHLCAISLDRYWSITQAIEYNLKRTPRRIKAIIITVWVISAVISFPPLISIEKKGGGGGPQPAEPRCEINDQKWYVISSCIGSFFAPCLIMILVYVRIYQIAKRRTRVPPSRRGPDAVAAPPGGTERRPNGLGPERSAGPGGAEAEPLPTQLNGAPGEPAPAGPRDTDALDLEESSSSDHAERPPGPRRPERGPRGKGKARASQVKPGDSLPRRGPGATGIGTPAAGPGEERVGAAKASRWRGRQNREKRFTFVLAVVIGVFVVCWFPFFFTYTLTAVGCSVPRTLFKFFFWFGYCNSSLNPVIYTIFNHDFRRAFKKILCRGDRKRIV
# assay-text: RSAT assay (Receptor Selection and Amplification Technology), alpha2A
# Type: cell-based
# run-conditions: NIH-3T3 cells, ratio of maximal effect to that of standard full agonist brimonidine, NA = not active below 10 micromolar
parameter: Intrinsic Activity Alpha 2A

Cc1c(C(C)c2c[nH]c(=S)[nH]2)ccc2cccnc12 (stereo not drawn) [Compound-18] ... 0.80
CC(c1ccc2c(c1)OCCO2)c1c[nH]c(=S)[nH]1 (stereo not drawn) [Compound 12] ... 0.54
CC(c1c[nH]c(=S)[nH]1)c1cccc2ccccc12 (stereo not drawn) [Compound 10] ... 0.52
CC(c1c[nH]c(=S)[nH]1)c1cccc2c1OCO2 (stereo not drawn) [Compound 3] ... 0.56
CC(c1c[nH]c(=S)[nH]1)c1cccc2c1OCCO2 (stereo not drawn) [Compound 2] ... 0.45
S=c1[nH]cc(Cc2cccc3ccccc23)[nH]1 [Compound 6] ... 0.48
S=c1[nH]cc(Cc2cccc3cccnc23)[nH]1 [Compound 8] ... 0.93
S=c1[nH]cc(Cc2cccc3c2OCCO3)[nH]1 [Compound 1] ... 0.44
CC(c1c[nH]c(=S)[nH]1)c1cccc2cccnc12 (stereo not drawn) [Compound 4] ... 0.80

====

# experimental-target: alpha2B adrenergic receptors (Homo sapiens)
# Construct: expressed in transfected cells; host or cells: NIH-3T3 cells
# assay-text: RSAT assay (Receptor Selection and Amplification Technology), alpha2B
# Type: cell-based
# run-conditions: NIH-3T3 cells, ratio of maximal effect to that of standard full agonist brimonidine, NA = not active below 10 micromolar
# key: entry, value: Intrinsic Activity Alpha 2B
parameter: Intrinsic Activity Alpha 2B

CC(c1c[nH]c(=S)[nH]1)c1cccc2ncccc12 (single isomer, unassigned; (-)) [Compound 15] ... 0.89
CC(c1c[nH]c(=S)[nH]1)c1cccc2ncccc12 (single isomer, unassigned; (+)) [Compound 14] ... 0.86
S=c1[nH]cc(Cc2ccc3c(c2)CCCS3)[nH]1 [Compound 13] ... 0.95
